Value source: ChEMBL document CHEMBL3039007

# target.entity: Solute carrier organic anion transporter family member 1B1 (Homo sapiens, UniProt Q9Y6L6)
# Sequence (Q9Y6L6 whole entry): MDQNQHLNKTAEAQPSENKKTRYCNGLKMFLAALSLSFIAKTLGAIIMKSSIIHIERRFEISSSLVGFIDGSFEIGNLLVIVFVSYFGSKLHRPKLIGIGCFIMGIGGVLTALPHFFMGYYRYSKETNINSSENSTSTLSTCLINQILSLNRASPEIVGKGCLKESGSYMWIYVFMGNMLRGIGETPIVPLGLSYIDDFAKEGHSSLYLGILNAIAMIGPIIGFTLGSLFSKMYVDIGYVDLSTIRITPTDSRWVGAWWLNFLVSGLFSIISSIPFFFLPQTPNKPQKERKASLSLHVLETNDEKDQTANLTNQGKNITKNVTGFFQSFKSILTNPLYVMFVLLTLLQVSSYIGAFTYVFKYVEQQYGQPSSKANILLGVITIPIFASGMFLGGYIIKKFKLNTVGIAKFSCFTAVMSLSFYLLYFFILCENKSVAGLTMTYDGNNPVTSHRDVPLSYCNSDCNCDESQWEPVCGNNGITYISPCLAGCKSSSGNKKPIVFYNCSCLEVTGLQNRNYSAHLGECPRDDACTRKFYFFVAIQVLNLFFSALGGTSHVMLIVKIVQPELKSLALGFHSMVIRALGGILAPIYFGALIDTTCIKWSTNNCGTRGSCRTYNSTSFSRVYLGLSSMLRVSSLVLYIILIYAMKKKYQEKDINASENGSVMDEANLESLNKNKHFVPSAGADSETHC
# test.context: chinese hamster, cho, 10 µM
Consider the following compounds; for each one, report its residual activity.
Numbers only here, please. The scale is %.

Report residual activity, nothing else, for this compound: "Nc1nc2c(ncn2[C@H]2C[C@H](O)[C@@H](CO)O2)c(=O)[nH]1" 85.51

Tell me its residual activity given "O=S(=O)([O-])CCS.[Na+]" as the entry. 95.36

For the compound CC(COc1ccccc1)NC(C)C(O)c1ccc(O)cc1.Cl (centres undefined) [ISOXSUPRINE HYDROCHLORIDE] , report residual activity. 38.44

Provide residual activity value for the following compound: C=C1C(N)CC2CC1C2(C)C (centres undefined) 92.27

Provide measured residual activity value, entry: "Oc1ccc(/C=C/c2cc(O)cc(O)c2)cc1" 157.6

Provide residual activity value for the following compound: "COC1=CC(=O)C[C@@H](C)[C@]12Oc1c(Cl)c(OC)cc(OC)c1C2=O" 65.59

# return recorded residual activity for input CCOC(=O)C(Cc1ccc(O)cc1)NC(C)=O (centres undefined) 118.5

Quick one: give measured residual activity for CCN(CC)CCNC(=O)c1cc(S(C)(=O)=O)ccc1OC.Cl [TIAPRIDE HYDROCHLORIDE] 106.2

Read the entry CC[N+](CC)(CC)CCOc1cccc(OCC[N+](CC)(CC)CC)c1OCC[N+](CC)(CC)CC.[I-].[I-].[I-] [GALLAMINE TRIETHIODIDE] and write its reported residual activity. 91.38

---

# target.entity: UniProt:Q9NPD5
# Sequence (Q9NPD5 whole entry): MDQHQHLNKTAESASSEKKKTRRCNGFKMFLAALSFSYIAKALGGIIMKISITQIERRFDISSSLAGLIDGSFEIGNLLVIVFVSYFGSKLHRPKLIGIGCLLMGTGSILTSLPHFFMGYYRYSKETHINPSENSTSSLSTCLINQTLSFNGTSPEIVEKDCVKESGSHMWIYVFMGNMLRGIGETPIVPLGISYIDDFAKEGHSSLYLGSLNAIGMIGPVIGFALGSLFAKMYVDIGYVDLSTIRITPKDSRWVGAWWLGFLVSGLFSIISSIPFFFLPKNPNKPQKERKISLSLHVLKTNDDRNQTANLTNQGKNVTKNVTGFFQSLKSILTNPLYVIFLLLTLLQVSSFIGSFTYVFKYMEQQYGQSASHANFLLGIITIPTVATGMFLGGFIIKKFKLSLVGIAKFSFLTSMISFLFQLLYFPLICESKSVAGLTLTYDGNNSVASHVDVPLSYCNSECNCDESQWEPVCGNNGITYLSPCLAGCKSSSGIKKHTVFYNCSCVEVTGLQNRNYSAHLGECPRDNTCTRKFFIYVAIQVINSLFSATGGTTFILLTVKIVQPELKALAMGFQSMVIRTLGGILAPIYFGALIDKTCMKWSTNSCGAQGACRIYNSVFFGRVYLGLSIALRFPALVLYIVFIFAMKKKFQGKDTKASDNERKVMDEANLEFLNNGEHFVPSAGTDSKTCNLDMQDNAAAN
# test.context: chinese hamster, cho, 10 µM
Residues, ends and D or L forms follow the SMILES beside them.
quantity: residual activity

Consider the compound Cc1c(C)c2c(c(C)c1O)CCC(C)(CCCC(C)CCCC(C)CCCC(C)C)O2 (stereo not drawn) . State its measured residual activity. 84.17%

Determine from records and report residual activity for "O=[N+]([O-])c1cccc2cn[nH]c12" 106.1%

For "C=C[C@@H](C1=CC(=O)C(OC)=C(OC)C1=O)c1ccccc1" , write its residual activity. 114.1%

Look up residual activity of "Cc1cc(=O)oc2cc(O)c(O)cc12" and report it. 110.1%

For the compound Cc1cc(=O)c2c(O)c3c(cc2o1)OCC(C)CC3 (stereo not drawn) [DIHYDROPTAEROXYLIN] , report residual activity. 85.01%

Give recorded residual activity. O=C(Oc1cc(O)cc2c1C[C@@H](OC(=O)c1cc(O)c(O)c(O)c1)[C@@H](c1cc(O)c(O)c(O)c1)O2)c1cc(O)c(O)c(O)c1 [EPIGALLOCATECHIN 3,5-DIGALLATE] 82.14%

Look up and state reported residual activity for "COc1ccc2c(=O)c(OC)c(-c3ccccc3)oc2c1" 144.6%

Identify measured residual activity associated with "COC(=O)c1c(C)c2c(c(C)c1O)OC(=O)c1c(C)c(Cl)c(O)c(Cl)c1O2" 14.63%

Identify measured residual activity corresponding to "O=C1c2ccccc2-c2cccc3cccc1c23" 69.74%

Given the compound CC(=O)Oc1ccc(-c2cc(=O)c3c(OC(C)=O)cc(OC(C)=O)cc3o2)cc1 [APIGENIN TRIACETATE] , write its reported residual activity. 94.69%

Could you please provide reported residual activity for "N[C@H](C(=O)O)[C@@H]1CC(Cl)=NO1" ? Thanks! 113.3%

Give the value of residual activity reported for the following: COc1c(-c2coc3cc4c(cc3c2=O)CC(O)C(C)(C)O4)ccc2c1C=CC(C)(C)O2 (stereo not drawn) 45.15%

Let me know recorded residual activity for CC(N)CCCC(C)(C)O.Cl (stereo not drawn) [HEPTAMINOL HYDROCHLORIDE] , thanks. 104.5%

Answer with the recorded residual activity for the compound listed here: "C[C@H](CCC(=O)O)[C@H]1CC[C@H]2[C@@H]3CC[C@@H]4CCCC[C@]4(C)[C@H]3CC[C@]12C" 102.7%

Provide measured residual activity value, entry: CC(=O)/C=C\[C@@H]1[C@@]2(C)CCCC(C)(C)C2CC[C@@]1(C)O (stereo partly drawn) [8-HYDROXY-15,16-BISNOR-11-LABDEN-13-ONE] 84.33%

Please give the documented residual activity of "CC(=O)O[C@H]1CC[C@@]2(C)[C@@H](CC[C@H]3[C@@H]4CC=C(C(C)=O)[C@@]4(C)C(=O)C[C@@H]32)C1" 85.5%

Identify residual activity associated with the compound "Clc1ccc2c(c1)C(N1CCNCC1)=Nc1ccccc1O2" 101.5%

Determine its reported residual activity: "CC(=O)O[C@@H]1C[C@H]2C(C)(C)C=CC(=O)[C@@]2(C)[C@H]2CC[C@]3(C)[C@@H](c4ccoc4)OC(=O)[C@H]4O[C@]43[C@]21C" 46.89%

Entry CC(=O)N[C@@H](Cc1c[nH]c2ccccc12)C(N)=O [ACETYLTRYPTOPHANAMIDE] needs its residual activity filled in; supply it. 60.38%

Supply reported residual activity belonging to this compound: "CC(=O)O[C@@H]1C[C@H]2C(C)(C)CCC(=O)[C@]2(C)[C@H]2CC[C@@]3(C)[C@H](c4ccoc4)OC(=O)[C@H]4O[C@]43[C@@]21C" 105.3%

Fill in reported residual activity for this entry: "O=C(O)/C=C(\CC(=O)O)C(=O)O" 88.62%

Return reported residual activity. Input compound: CC(CCc1ccc(O)cc1)NCCc1ccc(O)c(O)c1.Cl (stereo not drawn) [DOBUTAMINE HYDROCHLORIDE] 105.8%

Tell us which residual activity value is on record for CC(C)C[C@H](N)C(=O)N[C@@H](C)C(=O)O [LEU-ALA] (H-Leu-Ala-OH) 96.54%

Output measured residual activity for this item: "COc1ccc2c(c1)O[C@@H]1COc3cc(OC)c(OC)cc3[C@@H]1C2=O" 110.7%

Identify measured residual activity associated with CC1(C)Oc2ccc3ccc(=O)oc3c2CC1O (stereo not drawn) 142.3%

Kindly indicate its recorded residual activity. Item: "O=C(O)c1cc(O)ccc1O" 104%

Determine its reported residual activity: "C[C@@]12C(=O)OC(=O)[C@]1(C)[C@H]1CC[C@@H]2O1" 105.7%

// Input: "COc1cc(O)c2c(c1)C(=O)c1cc(C)cc(O)c1C2=O" . Output its residual activity only. 112.8%

// fetch residual activity given entry CC(COc1ccccc1)N(CCCl)Cc1ccccc1.Cl (stereo not drawn) [PHENOXYBENZAMINE HYDROCHLORIDE] 88.73%

Write down residual activity measured for item "CC(=O)[C@H]1CC[C@H]2[C@@H]3CC[C@@H]4C[C@H](O)CC[C@]4(C)[C@H]3C[C@H](O)[C@]12C" 117.8%

Read the entry S=C=NCc1ccccc1 [BENZYL ISOTHIOCYANATE] and write its reported residual activity. 101.9%

Read the entry COc1ccc2cc3[n+](cc2c1OC)CCc1cc2c(cc1-3)OCO2.[Cl-] [BERBERINE CHLORIDE] and write its reported residual activity. 108.4%

Return the recorded residual activity value; entry: "C[C@@H]1O[C@@H](Oc2c(-c3ccc(O)c(O)c3)oc3cc(O)cc(O)c3c2=O)[C@H](O)[C@H](O)[C@H]1O" 114.6%
